- targetOrTestSystem: human VR1 (Homo sapiens, UniProt Q8NER1)
- Construct: expressed in transfected cells; host or cells: HEK293
- Sequence (Q8NER1 whole entry): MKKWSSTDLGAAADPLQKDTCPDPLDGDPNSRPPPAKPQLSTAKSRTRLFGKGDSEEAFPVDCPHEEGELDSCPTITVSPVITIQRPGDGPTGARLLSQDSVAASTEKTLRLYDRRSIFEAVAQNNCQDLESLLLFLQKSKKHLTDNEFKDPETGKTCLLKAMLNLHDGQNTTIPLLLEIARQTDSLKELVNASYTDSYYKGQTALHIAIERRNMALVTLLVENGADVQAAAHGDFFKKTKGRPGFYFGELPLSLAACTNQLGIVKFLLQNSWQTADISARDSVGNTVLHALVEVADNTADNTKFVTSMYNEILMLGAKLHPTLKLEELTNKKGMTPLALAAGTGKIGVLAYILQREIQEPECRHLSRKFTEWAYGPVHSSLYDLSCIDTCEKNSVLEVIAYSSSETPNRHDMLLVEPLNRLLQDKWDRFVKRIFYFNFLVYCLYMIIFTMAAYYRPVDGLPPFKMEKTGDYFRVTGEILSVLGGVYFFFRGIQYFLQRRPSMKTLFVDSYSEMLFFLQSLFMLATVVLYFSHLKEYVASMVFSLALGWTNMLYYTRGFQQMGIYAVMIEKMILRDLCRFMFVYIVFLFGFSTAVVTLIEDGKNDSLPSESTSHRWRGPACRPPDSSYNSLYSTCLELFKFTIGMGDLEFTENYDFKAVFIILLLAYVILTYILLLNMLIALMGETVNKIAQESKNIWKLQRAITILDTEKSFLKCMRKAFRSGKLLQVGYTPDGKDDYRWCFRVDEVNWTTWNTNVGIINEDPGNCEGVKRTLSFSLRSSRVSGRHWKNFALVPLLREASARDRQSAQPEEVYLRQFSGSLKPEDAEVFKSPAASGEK
- assayComment: Human VR1 functional assay (intracellular Ca++, FLIPR, capsaicin challenge)
- Format: cell-based
- appliedConditions: hVR1, capsaicin challenge, read-out: FLIPR functional assay IC50 hVR1
- Procedure: The functional activity of the test compounds was determined by measuring changes in intracellular calcium concentration using a Ca^++-sensitive fluorescent dye and FLIPR™ technology. EC50 or IC50 values were determined from dose-response studies.
pIC50: −log10 of the molar value.
quantityKind: pIC50

Consider the reported pIC50 for these compounds:
inputSmiles: CCCCCN(C)c1ccc(CCC(=O)Nc2cnc3ccccc3c2)cc1
pIC50: 5.96
//
inputSmiles: O=C(Nc1cnc2ccccc2c1)c1ccc2c(c1)CCN2C(=O)C1CCCCC1
pIC50: 5.82

P: Cc1cc(C(=O)Nc2cnc3ccccc3c2)ccc1N(C)C1CCCCC1
Q: O=C(Nc1cnc2ccccc2c1)c1ccc2c(c1)CCN2C(=O)c1ccccc1
R: CCCCCCCN(C)c1cccc(C(=O)Nc2cnc3ccccc3c2)c1
Prompt: Task for the reader: rank each entry by its pIC50, from the minimum upward. Thanks in advance for listing the labels in the requested order.
Response: R, Q, P

This collection of values is drawn from patent US8394828B2.
